Target: Sphingosine 1-phosphate receptor 2 (Homo sapiens, UniProt O95136)
Sequence (O95136 whole entry): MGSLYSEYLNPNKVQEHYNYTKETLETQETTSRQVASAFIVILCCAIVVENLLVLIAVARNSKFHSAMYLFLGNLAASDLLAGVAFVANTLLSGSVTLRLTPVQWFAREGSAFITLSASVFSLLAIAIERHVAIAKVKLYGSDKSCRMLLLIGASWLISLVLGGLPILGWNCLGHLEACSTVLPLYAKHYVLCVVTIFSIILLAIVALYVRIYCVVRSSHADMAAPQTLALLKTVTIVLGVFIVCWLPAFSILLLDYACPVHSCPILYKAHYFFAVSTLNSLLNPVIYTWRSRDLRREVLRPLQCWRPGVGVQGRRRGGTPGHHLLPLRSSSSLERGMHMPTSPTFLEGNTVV
Assay: Agonist activity at S1P2 (unknown origin) expressed in CHO cells assessed as Ca2+ activation
pIC50: −log10 of the molar value.

| Smiles string | Test system | pIC50 |
| --- | --- | --- |
| Cc1cc(NNC(=O)Nc2cc(Cl)nc(Cl)c2)ncc1-c1cn(C)nc1C | Sphingosine 1-phosphate receptor 2 (Homo sapiens, UniProt O95136) | < 5.85 |

---

Molecular target: Platelet-derived growth factor receptor beta (Homo sapiens, UniProt P09619)
Sequence (P09619 whole entry): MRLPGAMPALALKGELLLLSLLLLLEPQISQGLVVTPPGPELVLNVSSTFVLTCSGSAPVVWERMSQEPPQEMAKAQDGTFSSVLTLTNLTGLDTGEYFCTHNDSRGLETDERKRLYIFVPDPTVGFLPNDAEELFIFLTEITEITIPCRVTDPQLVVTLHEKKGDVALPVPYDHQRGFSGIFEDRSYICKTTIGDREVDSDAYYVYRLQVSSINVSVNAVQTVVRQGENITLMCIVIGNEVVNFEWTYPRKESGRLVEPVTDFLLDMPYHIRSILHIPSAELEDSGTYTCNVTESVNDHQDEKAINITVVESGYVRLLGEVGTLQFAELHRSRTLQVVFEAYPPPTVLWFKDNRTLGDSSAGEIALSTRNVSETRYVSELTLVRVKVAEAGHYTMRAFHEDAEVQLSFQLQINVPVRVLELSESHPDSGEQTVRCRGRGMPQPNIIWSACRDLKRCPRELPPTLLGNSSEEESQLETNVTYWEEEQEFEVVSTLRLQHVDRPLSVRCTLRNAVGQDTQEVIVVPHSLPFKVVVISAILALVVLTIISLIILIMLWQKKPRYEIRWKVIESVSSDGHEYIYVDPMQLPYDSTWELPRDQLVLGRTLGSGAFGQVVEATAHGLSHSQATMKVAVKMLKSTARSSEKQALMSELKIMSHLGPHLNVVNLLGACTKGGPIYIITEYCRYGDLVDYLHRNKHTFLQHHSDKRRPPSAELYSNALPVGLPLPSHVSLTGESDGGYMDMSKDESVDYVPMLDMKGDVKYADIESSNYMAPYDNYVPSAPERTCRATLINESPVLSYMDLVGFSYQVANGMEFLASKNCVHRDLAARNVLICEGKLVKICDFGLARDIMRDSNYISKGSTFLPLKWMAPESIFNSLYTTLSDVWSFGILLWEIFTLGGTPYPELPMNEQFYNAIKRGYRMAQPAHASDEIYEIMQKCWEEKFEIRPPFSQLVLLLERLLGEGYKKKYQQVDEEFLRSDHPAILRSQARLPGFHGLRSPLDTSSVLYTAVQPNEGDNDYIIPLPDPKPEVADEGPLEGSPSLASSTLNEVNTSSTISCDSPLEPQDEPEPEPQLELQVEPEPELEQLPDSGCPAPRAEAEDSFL
Test: Inhibition of PDGFRbeta (unknown origin) by DiscoverX KINOMEscan assay

| Smiles string | IC50, nM |
| --- | --- |
| CNC(=O)c1cc2c(Oc3ccc(NC(=S)NC(=O)Cc4ccccc4)cc3F)ccnc2cc1OC | 7.06 |

meta.source: ChEMBL document CHEMBL5537112
